Reference source for all entries: patent US20090325964A1

system-tested: rat mGluR5 receptor (Rattus norvegicus)
Construct: expressed in transfected cells; host or cells: HEK-293
test-protocol: [3H]-MPEP displacement binding assay, HEK-293 cell membranes expressing rat mGluR5
test-conditions: [3H]-MPEP displacement, rat mGluR5; read-out: Median Ki
Procedure: MGluR5 expressing HEK-293 cells were scraped off a plate, transferred to centrifuge tubes and washed twice by centrifugation (2000 rpm for 10 minutes, at 4° C.) in buffer (50 mM Tris pH 7.5). The resulting pellets were aliquoted and stored at minus 80° C. […] Non-specific binding was determined in the presence of 10 μM MPEP. […] Percent inhibition and Ki values were generated by GraphPad Prism and Excel Fit. IC50 values were calculated using GraphPad by fitting to a 1 or 2 site-binding model. […]
Catalogue of molecules with associated Ki
Write it as a number; the unit µM goes unstated.

Examples from the recorded data:
>>> reported_value("COc1ccc(C(=O)N2CCN(c3sc(S(N)(=O)=O)cc3[N+](=O)[O-])CC2)cc1C#Cc1ccccn1 [Compound 254]")
0.108
>>> reported_value("O=C(c1ccc(OC(F)(F)F)c(C#Cc2ccccn2)c1)N1CCN(c2cnccn2)CC1 [Compound 335]")
0.176
>>> reported_value("COc1ccc(C(=O)N2CCN(c3cccc(C(F)(F)F)c3)CC2)cc1C#Cc1ccccn1 [Compound 187]")
0.005

COc1ccc(C(=O)N2CCN(S(=O)(=O)c3ccc(-n4cnnn4)cc3)CC2)cc1C#Cc1ccccn1 [Compound 284] yielded Ki of 0.376

* * *

system-tested: rat mGluR5 receptor (Rattus norvegicus)
Construct: expressed in transfected cells; host or cells: HEK-293
test-protocol: [3H]-MPEP displacement binding assay, HEK-293 cell membranes expressing rat mGluR5
test-conditions: read-out: Median Ki
Protocol: MGluR5 expressing HEK-293 cells were scraped off a plate, transferred to centrifuge tubes and washed twice by centrifugation (2000 rpm for 10 minutes, at 4° C.) in buffer (50 mM Tris pH 7.5). The resulting pellets were aliquoted and stored at minus 80° C. […] Non-specific binding was determined in the presence of 10 μM MPEP. […] Percent inhibition and Ki values were generated by GraphPad Prism and Excel Fit. IC50 values were calculated using GraphPad by fitting to a 1 or 2 site-binding model. […]
pKi: −log10 of the molar value.
Quick rule: pKi of at least 6 means y, below that means n.

Below are worked cases with known answers.
>>> group("COc1ccc(C(=O)N2CCN(c3ccccn3)CC2)cc1C#Cc1cccc(Cl)c1 [Compound 19]")
"y"
>>> group("Cc1ccc(C(=O)N2CCN(c3ccccn3)CC2)cc1C#Cc1cccc(C(F)(F)F)c1 [Compound 27]")
"y"
>>> group("COc1ccc(C(=O)N2CCN(c3cnccn3)CC2)cc1C#CCc1ccccc1 [Compound 51]")
"y"
>>> group("Cc1ccc(C)c(C#Cc2cc(C(=O)N3CCN(c4ccccn4)CC3)ccc2C)c1 [Compound 30]")
"n"
>>> group("COc1cccc(C#Cc2cc(C(=O)N3CCN(c4ccccn4)CC3)ccc2OC)c1 [Compound 17]")
"y"

Input line: Check if pKi >= 6 (inclusive). Item: COc1ccc(C(=O)N2CCN(c3cnccn3)CC2)cc1C#Cc1cccc(C)c1 [Compound 53]
Output line: y

* * *

system-tested: rat mGluR5 receptor (Rattus norvegicus, UniProt P31424)
Construct: expressed in transfected cells; host or cells: HEK-293
Sequence (P31424 21-1203): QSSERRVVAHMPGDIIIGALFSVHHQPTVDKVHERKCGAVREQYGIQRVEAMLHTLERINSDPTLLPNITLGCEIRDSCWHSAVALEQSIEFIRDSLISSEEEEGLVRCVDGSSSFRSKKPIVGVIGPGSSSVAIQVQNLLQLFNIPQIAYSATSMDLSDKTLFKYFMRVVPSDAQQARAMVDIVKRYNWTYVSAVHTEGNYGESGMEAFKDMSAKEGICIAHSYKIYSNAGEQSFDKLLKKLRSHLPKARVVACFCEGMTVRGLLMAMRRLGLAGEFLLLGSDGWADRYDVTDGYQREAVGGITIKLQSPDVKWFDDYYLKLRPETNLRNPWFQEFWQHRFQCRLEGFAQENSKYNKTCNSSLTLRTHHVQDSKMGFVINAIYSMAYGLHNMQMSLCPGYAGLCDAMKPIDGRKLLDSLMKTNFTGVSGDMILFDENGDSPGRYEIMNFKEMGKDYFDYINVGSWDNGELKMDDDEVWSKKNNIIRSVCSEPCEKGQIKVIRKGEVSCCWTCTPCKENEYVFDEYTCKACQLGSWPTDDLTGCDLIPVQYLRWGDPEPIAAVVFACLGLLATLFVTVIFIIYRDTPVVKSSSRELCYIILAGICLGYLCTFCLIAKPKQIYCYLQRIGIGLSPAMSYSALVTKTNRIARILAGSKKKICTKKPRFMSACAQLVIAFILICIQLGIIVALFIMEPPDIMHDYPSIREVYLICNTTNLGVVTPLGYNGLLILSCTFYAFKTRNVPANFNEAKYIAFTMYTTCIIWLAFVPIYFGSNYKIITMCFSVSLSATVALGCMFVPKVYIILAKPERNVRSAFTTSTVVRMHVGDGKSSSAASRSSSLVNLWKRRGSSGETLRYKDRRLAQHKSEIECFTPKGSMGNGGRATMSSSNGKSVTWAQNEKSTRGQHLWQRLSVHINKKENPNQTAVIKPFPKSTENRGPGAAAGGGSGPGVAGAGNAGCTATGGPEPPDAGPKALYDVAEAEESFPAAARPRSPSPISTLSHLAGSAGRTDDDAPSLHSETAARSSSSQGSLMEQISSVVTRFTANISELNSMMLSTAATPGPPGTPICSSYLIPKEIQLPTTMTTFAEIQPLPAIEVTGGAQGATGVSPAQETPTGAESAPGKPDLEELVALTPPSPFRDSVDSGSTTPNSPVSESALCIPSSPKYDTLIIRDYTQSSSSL
test-protocol: [3H]-MPEP displacement binding assay, HEK-293 cell membranes expressing rat mGluR5
test-conditions: [3H]-MPEP displacement, rat mGluR5; read-out: Median Ki
measured-endpoint: Ki (nM)
Write it as a number; the unit nM goes unstated.

Examples from the recorded data:
>>> reported_value("O=C(c1ccc(F)c(C#Cc2ccccn2)c1)N1CCN(c2ncccn2)CC1 [Compound 312]")
84
>>> reported_value("COc1ccc(C(=O)N2CCN(c3ccc(C(F)(F)F)cn3)CC2)cc1C#Cc1ccccn1 [Compound 183]")
41

--- query ---
COc1ccc(C(=O)N2CCN(c3cccc(Cl)n3)CC2)cc1C#Cc1ccccn1 [Compound 255] yielded Ki of 9
